meta.source: patent US20250026752A1

Target: human mAChR M4 (Homo sapiens)
Construct: expressed in transfected cells; host or cells: CHO-K1 (ATCC), stably expressing hM4 and Gqi5
Sequence (P08173 1-479): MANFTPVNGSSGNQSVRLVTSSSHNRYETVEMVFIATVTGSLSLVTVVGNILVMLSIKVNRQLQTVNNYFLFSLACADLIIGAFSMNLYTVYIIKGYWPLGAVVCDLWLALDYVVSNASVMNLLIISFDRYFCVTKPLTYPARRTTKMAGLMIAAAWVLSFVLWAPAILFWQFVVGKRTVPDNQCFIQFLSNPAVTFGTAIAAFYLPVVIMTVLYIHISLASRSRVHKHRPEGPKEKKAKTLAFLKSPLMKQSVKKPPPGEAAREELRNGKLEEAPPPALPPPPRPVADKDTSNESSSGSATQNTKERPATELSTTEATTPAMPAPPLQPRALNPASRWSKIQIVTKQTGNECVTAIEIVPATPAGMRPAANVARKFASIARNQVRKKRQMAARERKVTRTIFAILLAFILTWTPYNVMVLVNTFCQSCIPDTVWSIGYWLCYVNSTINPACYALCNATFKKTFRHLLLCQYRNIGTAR
Assay: mAChR M4 cell-based functional assay: calcium flux (Fluo-4, FDSS), positive allosteric modulator activity on the EC20 acetylcholine response, hM4-Gqi5 CHO-K1 cells
Details: CHO-K1, human M4; % ACh maximum at 30 μM
READOUT_NAME: Emax at 30 µM (%)
Write the value in % as a bare number.

Per the records, this molecule ( `Cc1ccc2ncnc(N3CCc4ncc(C(F)(F)F)cc4C3)c2c1` ) has Emax at 30 µM equal to 82

Per the records, this molecule ( `Cc1nc(N2CCc3ncc(-c4cnn(C5CC5)c4)cc3C2)c2cc(C(F)(F)F)ccc2n1` ) has Emax at 30 µM equal to 58

Per the records, this molecule ( CC1CN(c2ncnc3ccc(F)cc23)Cc2cc(NC3CCCC3)cnc21 (centres unmarked) ) has Emax at 30 µM equal to 84

Per the records, this molecule ( `Cc1ccc2nc(C)nc(N3CCc4ncc(C(F)(F)F)cc4C3)c2c1` ) has Emax at 30 µM equal to 92

Per the records, this molecule ( `Cc1ccc2ncnc(N3CCc4ncc(N5CCOc6ncccc65)cc4C3)c2c1` ) has Emax at 30 µM equal to 122

Per the records, this molecule ( `Cc1ccc2nc(C)nc(N3CCc4ncc(-c5cnc(F)cc5C)cc4C3)c2c1` ) has Emax at 30 µM equal to 92

Per the records, this molecule ( `Cc1nc(N2CCc3ncc(C(F)(F)F)cc3C2)c2ccc(Br)cc2n1` ) has Emax at 30 µM equal to 32

Per the records, this molecule ( `CC(C)(O)CNc1nc(N2CCc3ncc(C(F)(F)F)cc3C2)c2cc(F)ccc2n1` ) has Emax at 30 µM equal to 90

Per the records, this molecule ( `CN1CCN(c2cnc3c(c2)CN(c2ncnc4cc(F)c(F)cc24)CC3)CC1=O` ) has Emax at 30 µM equal to 84

Per the records, this molecule ( `Cc1ccc2nc(C)nc(N3CCc4ncc(-c5cnn(C6CC6)c5)cc4C3)c2c1` ) has Emax at 30 µM equal to 92

Per the records, this molecule ( `COc1ccc2ncnc(N3CCc4ncc(Oc5cc(C)ccc5F)cc4C3)c2c1` ) has Emax at 30 µM equal to 38

Per the records, this molecule ( `Cc1nc(N2CCc3ncc(N4CCO[C@H](c5ccccc5)C4)cc3C2)c2cc(F)ccc2n1` ) has Emax at 30 µM equal to 84

Per the records, this molecule ( `Cc1nc(N2CCc3ncc(-c4c(C)cnn4C)cc3C2)c2cc(Cl)ccc2n1` ) has Emax at 30 µM equal to 94

Per the records, this molecule ( Cn1nccc1Nc1cnc2c(c1)CN(c1nc(NC3CCCOC3)nc3ccc(F)cc13)CC2 (centres unmarked) ) has Emax at 30 µM equal to 86

Per the records, this molecule ( `Cc1nn(C)cc1-c1cnc2c(c1)CN(c1nc(Cl)nc3ccc(F)cc13)CC2` ) has Emax at 30 µM equal to 95

Per the records, this molecule ( `Clc1ccc2nc(C3CC3)nc(N3CCc4ncc(N5CCCn6nccc65)cc4C3)c2c1` ) has Emax at 30 µM equal to 100

Per the records, this molecule ( `Fc1cc2ncnc(N3CCc4ncc(N5CCOc6ncccc65)cc4C3)c2cc1F` ) has Emax at 30 µM equal to 97

* * *

Please provide measured pEC50 for the entries that follow.
molecular target: human mAChR M4 (Homo sapiens); construct: expressed in transfected cells; host or cells: CHO-K1 (ATCC), stably expressing hM4 and Gqi5; test: mAChR M4 cell-based functional assay: calcium flux (Fluo-4, FDSS), positive allosteric modulator activity on the EC20 acetylcholine response, hM4-Gqi5 CHO-K1 cells; settings: human M4; PAM activity on EC20 acetylcholine response, calcium flux; read-out: Human M4 EC50
// field semantics: pEC50 = negative decimal log of concentration (mol/L)

Field pEC50 (human mAChR M4 (Homo sapiens)), entry `Cn1nc(C(F)(F)F)cc1-c1cnc2c(c1)CN(c1ncnc3ccc(F)cc13)CC2` : 6.70

Field pEC50 (human mAChR M4 (Homo sapiens)), entry Cc1nc(N2Cc3cc(C(F)(F)F)cnc3CC2C)c2cc(F)ccc2n1 (stereo not shown) : 6.66

Field pEC50 (human mAChR M4 (Homo sapiens)), entry `Cc1nc(N2CCc3ncc(C(F)(F)F)cc3C2)c2c(F)cccc2n1` : 6.40

* * *

biological target: human mAChR M4 (Homo sapiens, UniProt P08173); construct: expressed in transfected cells; host or cells: CHO-K1 (ATCC), stably expressing hM4 and Gqi5; assay: mAChR M4 cell-based functional assay: calcium flux (Fluo-4, FDSS), positive allosteric modulator activity on the EC20 acetylcholine response, hM4-Gqi5 CHO-K1 cells; conditions: CHO-K1, human M4; % ACh maximum at 30 μM
READOUT_NAME: Emax at 30 µM (%)
Write the value in % as a bare number.

Field Emax at 30 µM (human mAChR M4 (Homo sapiens, UniProt P08173)), entry Fc1ccc2ncnc(N3CCc4ncc(Cc5ccccc5F)cc4C3)c2c1 [Compound 164] : 75

Field Emax at 30 µM (human mAChR M4 (Homo sapiens, UniProt P08173)), entry COc1ccc2nc(C)nc(N3CCc4ncc(-c5cc(F)ccc5C)cc4C3)c2c1 [Compound 313] : 52

Field Emax at 30 µM (human mAChR M4 (Homo sapiens, UniProt P08173)), entry Cc1ncc(-c2cnc3c(c2)CN(c2ncnc4ccc(F)cc24)CC3)s1 [Compound 27] : 110

Field Emax at 30 µM (human mAChR M4 (Homo sapiens, UniProt P08173)), entry Cc1ncc(-c2cnc3c(c2)CN(c2nc(C(F)(F)F)nc4ccc(F)cc24)CC3)s1 [Compound 66] : 35

* * *

Please provide measured pEC50 for the entries that follow.
target: human mAChR M4 (Homo sapiens); construct: expressed in transfected cells; host or cells: CHO-K1 (ATCC), stably expressing hM4 and Gqi5; assay: mAChR M4 cell-based functional assay: calcium flux (Fluo-4, FDSS), positive allosteric modulator activity on the EC20 acetylcholine response, hM4-Gqi5 CHO-K1 cells; details: human M4; PAM activity on EC20 acetylcholine response, calcium flux; read-out: Human M4 EC50
// field semantics: pEC50 = negative decimal log of concentration (mol/L)

Per the records, this compound ( Cc1nc(N2CCc3ncc(C(F)(F)F)cc3C2)c2cc(F)ccc2n1 [Compound 130] ) has pEC50 equal to 7.10

Per the records, this compound ( Fc1ccc2c(N3CCc4ncc(C(F)(F)F)cc4C3)ncnc2c1 [Compound 137] ) has pEC50 equal to 6.37

Per the records, this compound ( Fc1ccc2ncnc(N3CCc4ncc(N5CCc6ncccc65)cc4C3)c2c1 [Compound 319] ) has pEC50 equal to 7.52

Per the records, this compound ( Cc1nc(N2CCc3ncc(-c4ccccc4C)cc3C2)c2cc(Cl)ccc2n1 [Compound 302] ) has pEC50 equal to 5.27

Per the records, this compound ( [2H]c1nc(N2CCc3ncc(N4CCOc5ncccc54)cc3C2)c2cc(C)ccc2n1 [Compound 204] ) has pEC50 equal to 7.10

Per the records, this compound ( Cc1nc2c(cc1N1CCOC(C)(C)C1)CN(c1ncnc3ccc(F)cc13)CC2 [Compound 219] ) has pEC50 equal to 5.86

Per the records, this compound ( c1cnc2nc(NC3CCOC3)nc(N3CCc4ncc(N5CCCn6nccc65)cc4C3)c2c1 (stereo not drawn) [Compound 245] ) has pEC50 equal to 6.66

Per the records, this compound ( Cc1nn(C)cc1-c1cnc2c(c1)CN(c1nc(C3CC3)nc3ccc(Cl)cc13)CC2 [Compound 191] ) has pEC50 equal to 5.97

Per the records, this compound ( Cc1ccc(F)c(Oc2cnc3c(c2)CN(c2ncnc4ccc(F)cc24)CC3)c1 [Compound 148] ) has pEC50 equal to 6.12

Per the records, this compound ( Fc1ccc2nc(Cl)nc(N3CCc4ncc(C(F)(F)F)cc4C3)c2c1 [Compound 120] ) has pEC50 equal to 7.00

Per the records, this compound ( Cc1ccc(Oc2cnc3c(c2)CN(c2ncnc4ccc(Cl)cc24)CC3)c(F)c1 [Compound 145] ) has pEC50 equal to 5.32

Per the records, this compound ( Cc1nc(N2CCc3ncc(C(F)(F)F)cc3C2)c2cc(C#N)ccc2n1 [Compound 142] ) has pEC50 equal to 6.59

Per the records, this compound ( Cc1nn(C)cc1-c1cnc2c(c1)CN(c1nc(Cl)nc3ccc(Cl)cc13)CC2 [Compound 28] ) has pEC50 equal to 6.24

Per the records, this compound ( Fc1ccc2ncnc(N3CCc4ncc(N5CCCn6nccc65)cc4C3)c2c1 [Compound 74] ) has pEC50 equal to 8.00

Per the records, this compound ( OC1(C2CC2)CN(c2nc(N3CCc4ncc(N5CCCn6nccc65)cc4C3)c3cccnc3n2)C1 [Compound 248] ) has pEC50 equal to 6.52

Per the records, this compound ( FC(F)(F)c1cnc2c(c1)CN(c1ncnc3ccc(Cl)cc13)CC2 [Compound 140] ) has pEC50 equal to 7.10

Per the records, this compound ( Cc1nn(C)cc1-c1cnc2c(c1)CN(c1ncnc3cc(F)c(F)cc13)CC2 [Compound 8] ) has pEC50 equal to 7.22

Per the records, this compound ( Cc1ccc2nc(Cl)nc(N3CCc4ncc(C(F)(F)F)cc4C3)c2c1 [Compound 119] ) has pEC50 equal to 6.96

Per the records, this compound ( Fc1ccc(Cc2cnc3c(c2)CN(c2ncnc4ccc(F)cc24)CC3)cc1 [Compound 170] ) has pEC50 equal to 6.31

Per the records, this compound ( Cn1nccc1Nc1cnc2c(c1)CN(c1nc(NC3CCCOC3)nc3ccc(F)cc13)CC2 (stereo not drawn) [Compound 213] ) has pEC50 equal to 6.31

Per the records, this compound ( Cc1noc(C)c1-c1cnc2c(c1)CN(c1ncnc3cc(F)c(F)cc13)CC2 [Compound 240] ) has pEC50 equal to 6.68

Per the records, this compound ( FC(F)(F)c1cnc2c(c1)CN(c1nc(Cl)nc3ccc(Cl)cc13)CC2 [Compound 141] ) has pEC50 equal to 6.66

Per the records, this compound ( COc1ccc2ncnc(N3CCc4ncc(Nc5ccnn5C)cc4C3)c2c1 [Compound 80] ) has pEC50 equal to 6.30

Per the records, this compound ( Fc1ccc2nc(C(F)(F)F)nc(N3CCc4ncc(N5CCCn6nccc65)cc4C3)c2c1 [Compound 111] ) has pEC50 equal to 6.40

Per the records, this compound ( Fc1cc2c(N3CCc4ncc(Nc5cccnc5F)cc4C3)nc(Cl)nc2cc1Cl [Compound 110] ) has pEC50 equal to 5.41

Per the records, this compound ( C[C@@H]1CN(c2cnc3c(c2)CN(c2ncnc4cc(F)c(F)cc24)CC3)CCO1 [Compound 241] ) has pEC50 equal to 7.10

Per the records, this compound ( Fc1ccccc1Oc1cnc2c(c1)CN(c1ncnc3ccc(Cl)cc13)CC2 [Compound 232] ) has pEC50 equal to 6.13

Per the records, this compound ( C[C@@H]1CN(c2cnc3c(c2)CN(c2ncnc4ccc(F)cc24)CC3)CCO1 [Compound 104] ) has pEC50 equal to 7.15

Per the records, this compound ( Cc1nc(N2CCc3ncc(CC(F)(F)F)cc3C2)c2cc(Cl)ccc2n1 [Compound 287] ) has pEC50 equal to 6.44

Per the records, this compound ( Clc1nc(N2CCc3ncc(N4CCOc5ncccc54)cc3C2)c2cccnc2n1 [Compound 95] ) has pEC50 equal to 6.38

Per the records, this compound ( Fc1cc2ncnc(N3CCc4ncc(Nc5cccnc5F)cc4C3)c2cc1F [Compound 243] ) has pEC50 equal to 7.15

Per the records, this compound ( Clc1ccc2ncnc(N3CCc4ncc(N5CCOc6ncccc65)cc4C3)c2c1 [Compound 105] ) has pEC50 equal to 7.15
